meta.source: PubChem BioAssay (EPA / NIEHS)

targetOrTestSystem: human CYP1A2, CYP1A2 (gene 1544) (UniProt P05177)
Sequence (P05177 whole entry, looked up): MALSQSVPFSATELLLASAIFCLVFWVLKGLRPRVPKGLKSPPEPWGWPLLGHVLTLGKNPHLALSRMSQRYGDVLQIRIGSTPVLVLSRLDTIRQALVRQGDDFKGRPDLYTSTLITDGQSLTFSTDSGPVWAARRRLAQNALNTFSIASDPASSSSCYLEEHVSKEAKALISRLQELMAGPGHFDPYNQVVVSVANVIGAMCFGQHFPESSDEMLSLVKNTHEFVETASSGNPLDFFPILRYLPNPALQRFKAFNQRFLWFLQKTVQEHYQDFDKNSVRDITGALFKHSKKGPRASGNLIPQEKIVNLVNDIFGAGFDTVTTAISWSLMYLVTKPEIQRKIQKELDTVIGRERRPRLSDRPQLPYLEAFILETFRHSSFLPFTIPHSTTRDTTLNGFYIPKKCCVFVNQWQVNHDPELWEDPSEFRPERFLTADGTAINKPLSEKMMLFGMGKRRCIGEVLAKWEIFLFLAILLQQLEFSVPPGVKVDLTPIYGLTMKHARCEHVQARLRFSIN
protocolNotes: NVS_ADME_hCYP1A2: NovaScreen (NVS) CYP450-related Enzyme Activity (ADME) Assay for human CYP1A2 (AID 2283102)
Method: NVS_ADME_hCYP1A2 is a biochemical, single-readout assay that uses extracted gene-proteins from insect cells in a cell-free assay. Measurements were taken 0.5 hour after chemical dosing in a 96-well plate.NVS_ADME_hCYP1A2 is one of one assay component(s) measured or calculated from the NVS_ADME_hCYP1A2 assay. […] This assay endpoint, NVS_ADME_hCYP1A2, was analyzed in the positive analysis fitting direction relative to Acetonitrile as the negative control and baseline of activity. […]
Active and inactive are the calls of the source. How the source made its calls: active means hit-call score of the fitted dose curve at least 0.9, where 1 is the maximum; inconclusive means response in the unintended direction; inactive means score below 0.9.
Possible outcomes: Yes = active, No = inactive

>  <compound>
CCOP(=S)(OCC)Oc1ccc2c(C)c(Cl)c(=O)oc2c1

>  <classAssignment>
Yes

$$$$
>  <compound>
CCCSP(=O)(OCC)Oc1ccc(Br)cc1Cl (stereo unspecified)

>  <classAssignment>
Yes

$$$$
>  <compound>
CSc1nc(NC(C)C)nc(NC(C)C)n1

>  <classAssignment>
Yes

$$$$
>  <compound>
C#CC(C)(C)NC(=O)c1cc(Cl)cc(Cl)c1

>  <classAssignment>
Yes

$$$$
>  <compound>
CCCOCC(=Nc1ccc(Cl)cc1C(F)(F)F)n1ccnc1

>  <classAssignment>
Yes

$$$$
>  <compound>
CCOC(=O)CC(SP(=O)(OC)OC)C(=O)OCC (stereo unspecified)

>  <classAssignment>
No

$$$$
>  <compound>
CCCCOC(=O)c1ccccc1C(=O)O

>  <classAssignment>
No

$$$$
>  <compound>
Cc1cc(C2CC2)nc(Nc2ccccc2)n1

>  <classAssignment>
Yes

$$$$
>  <compound>
CNc1cnn(-c2cccc(C(F)(F)F)c2)c(=O)c1Cl

>  <classAssignment>
Yes

$$$$
>  <compound>
O=[N+]([O-])c1cc(C(F)(F)F)c(Cl)c([N+](=O)[O-])c1Nc1ncc(C(F)(F)F)cc1Cl

>  <classAssignment>
No

$$$$
>  <compound>
CCC(=O)Nc1ccc(Cl)c(Cl)c1

>  <classAssignment>
Yes

$$$$

* * *

Read-out: NAD(P)H dehydrogenase [quinone] 1 (NQO1), NQO1 (gene 1728)
protocolNotes: LTEA_HepaRG_NQO1: Life Technologies and Expression Analysis (LTEA) Assay for NAD(P)H dehydrogenase [quinone] 1 (NQO1) using HepaRG (AID 2283526)
conditionDetails: mRNA level, 48 h; actives raise or lower the signal
Calls of active or inactive are those of the source. Rule for the calls: active = hit-call score of the fitted dose curve at least 0.9, where 1 is the maximum; inactive = score below 0.9.

>  <molecule>
C#CCC1=C(C)C(OC(=O)C2C(C=C(C)C)C2(C)C)CC1=O (configuration not stated)

>  <outcome>
inactive

$$$$
>  <molecule>
CNC(=O)ON=C(SC)C(=O)N(C)C

>  <outcome>
inactive

$$$$
>  <molecule>
CN(C)NC(=O)CCC(=O)O

>  <outcome>
inactive

$$$$
>  <molecule>
COc1ccc(C(=CC(=O)N2CCOCC2)c2ccc(Cl)cc2)cc1OC

>  <outcome>
inactive

$$$$
>  <molecule>
CSc1nnc(C(C)(C)C)c(=O)n1N

>  <outcome>
inactive

$$$$
>  <molecule>
Nc1c(Cl)cc([N+](=O)[O-])cc1Cl

>  <outcome>
inactive

$$$$
>  <molecule>
CCOP(=S)(OCC)OC(Cl)C(Cl)(Cl)Cl (configuration not stated)

>  <outcome>
inactive

$$$$

* * *

Read-out: ATP-citrate lyase (ACLY), ACLY (gene 47)
protocolNotes: LTEA_HepaRG_ACLY: Life Technologies and Expression Analysis (LTEA) Assay for ATP-citrate lyase (ACLY) using HepaRG (AID 2283466)
conditionDetails: mRNA level, 48 h; actives raise or lower the signal
Activity calls are given as the source filed them. How the source made its calls: active means hit-call score of the fitted dose curve at least 0.9, where 1 is the maximum; inactive means score below 0.9.
measurementType: AC50

>  <molecule>
Nc1nc(N)nc(NC2CC2)n1

>  <experimentalValue>
inactive

$$$$
>  <molecule>
C[Si](Cn1cncn1)(c1ccc(F)cc1)c1ccc(F)cc1

>  <experimentalValue>
inactive

$$$$
>  <molecule>
CC[C@H](C)[C@H]1O[C@]2(C=C[C@@H]1C)C[C@@H]1C[C@@H](C/C=C(\C)[C@@H](O[C@H]3C[C@H](OC)[C@@H](O[C@H]4C[C@H](OC)[C@@H](NC)[C@H](C)O4)[C@H](C)O3)[C@@H](C)/C=C/C=C3\CO[C@@H]4[C@H](O)C(C)=C[C@@H](C(=O)O1)[C@]34O)O2

>  <experimentalValue>
inactive

$$$$
>  <molecule>
CCOP(=O)(NC(C)C)Oc1ccc(SC)c(C)c1 (centres undefined)

>  <experimentalValue>
inactive

$$$$
>  <molecule>
Nc1c(Cl)cc([N+](=O)[O-])cc1Cl

>  <experimentalValue>
inactive

$$$$
>  <molecule>
CNc1cnn(-c2cccc(C(F)(F)F)c2)c(=O)c1Cl

>  <experimentalValue>
inactive

$$$$
>  <molecule>
CCC(CC)Nc1c([N+](=O)[O-])cc(C)c(C)c1[N+](=O)[O-]

>  <experimentalValue>
89.4 µM (active)

$$$$
>  <molecule>
FC(F)C(F)(F)OCC(Cn1cncn1)c1ccc(Cl)cc1Cl (centres undefined)

>  <experimentalValue>
12.2 µM (active)

$$$$
>  <molecule>
CC(=NC#N)N(C)Cc1ccc(Cl)nc1

>  <experimentalValue>
inactive

$$$$

* * *

Read-out: Intercellular Adhesion Molecule 1 (ICAM1), ICAM1 (gene 3383)
protocolNotes: BSK_3C_ICAM1: BioMAP Diversity Plus: 3C Assay for Intercellular Adhesion Molecule 1 (ICAM1) Biomarker Activity (AID 2283003)
conditionDetails: primary human endothelial cells (HUVEC); actives raise or lower the signal
Procedure: BSK_3C is a cell-based, multiplexed-readout assay that uses umbilical vein endothelium, a human vascular primary cell, with measurements taken at 24 hours after chemical dosing in a 96-well plate.BSK_3C_ICAM1 is an assay component measured in the BSK_3C assay. It measures ICAM-1 antibody related to regulation of gene expression using ELISA technology.Data from the assay component BSK_3C_ICAM1 was analyzed into 1 assay endpoint. […]
The source made the active and inactive calls. How the source made its calls: active means hit-call score of the fitted dose curve at least 0.9, where 1 is the maximum; inactive means score below 0.9.
Possible outcomes: T for active, F for inactive

>  <compound>
CC(=NC#N)N(C)Cc1ccc(Cl)nc1

>  <classAssignment>
F

$$$$
>  <compound>
COc1ccc(C(=CC(=O)N2CCOCC2)c2ccc(Cl)cc2)cc1OC

>  <classAssignment>
F

$$$$
>  <compound>
N#CSCSC#N

>  <classAssignment>
T

$$$$
>  <compound>
CCOP(=O)(NC(C)C)Oc1ccc(SC)c(C)c1 (stereo not drawn)

>  <classAssignment>
F

$$$$
>  <compound>
CCOP(=S)(OCC)SCCSCC

>  <classAssignment>
F

$$$$
>  <compound>
CC(C)=CC1C(C(=O)OCN2C(=O)C3=C(CCCC3)C2=O)C1(C)C (stereo not drawn)

>  <classAssignment>
F

$$$$
>  <compound>
Cc1ccn2nc(S(=O)(=O)Nc3c(F)cccc3F)nc2n1

>  <classAssignment>
F

$$$$
>  <compound>
CON=C(C(=O)OC)c1ccccc1CON=C(C)c1cccc(C(F)(F)F)c1

>  <classAssignment>
F

$$$$
>  <compound>
CCOP(=S)(OCC)OC(Cl)C(Cl)(Cl)Cl (stereo not drawn)

>  <classAssignment>
F

$$$$
>  <compound>
CCC(=NOC/C=C/Cl)C1=C(O)CC(C2CCOCC2)CC1=O (stereo not drawn)

>  <classAssignment>
F

$$$$
>  <compound>
CSC1=N[C@@](C)(c2ccccc2)C(=O)N1Nc1ccccc1

>  <classAssignment>
F

$$$$
>  <compound>
CCc1cccc(C)c1N(C(=O)CCl)C(C)COC (stereo not drawn)

>  <classAssignment>
F

$$$$
>  <compound>
CCCSP(=O)(OCC)SCCC

>  <classAssignment>
F

$$$$

* * *

Read-out: Vascular cell adhesion molecule 1 (VCAM1), VCAM1 (gene 7412)
protocolNotes: BSK_LPS_VCAM1: BioMAP Diversity Plus: LPS Assay for Vascular cell adhesion molecule 1 (VCAM1) Biomarker Activity (AID 2283086)
conditionDetails: primary human HUVEC with PBMC; actives raise or lower the signal
Calls of active or inactive are those of the source. The calls were made as follows: active = hit-call score of the fitted dose curve at least 0.9, where 1 is the maximum; inactive = score below 0.9.
Possible outcomes: active, inactive

>  <compound>
CCc1cccc(C)c1N(C(=O)CCl)C(C)COC (centres undefined)

>  <classAssignment>
active

$$$$
>  <compound>
Nc1nc(N)nc(NC2CC2)n1

>  <classAssignment>
inactive

$$$$
>  <compound>
CC(Oc1cccc(Cl)c1)C(=O)O (centres undefined)

>  <classAssignment>
inactive

$$$$
>  <compound>
CON=C(C(=O)OC)c1ccccc1CON=C(C)c1cccc(C(F)(F)F)c1

>  <classAssignment>
inactive

$$$$
>  <compound>
C[N+]1(C)CCCCC1

>  <classAssignment>
inactive

$$$$
>  <compound>
C#CCC1=C(C)C(OC(=O)C2C(C=C(C)C)C2(C)C)CC1=O (centres undefined)

>  <classAssignment>
active

$$$$
>  <compound>
C#CC(C)(C)NC(=O)c1cc(Cl)cc(Cl)c1

>  <classAssignment>
inactive

$$$$
>  <compound>
COc1cc(OC)nc(Sc2cccc(Cl)c2C(=O)O)n1

>  <classAssignment>
inactive

$$$$
>  <compound>
CC1(C(=O)Nc2ccc(O)c(Cl)c2Cl)CCCCC1

>  <classAssignment>
inactive

$$$$
